# Ki annotations
Target Desc: Adenosine deaminase (Bos taurus, UniProt P56658)
Sequence (P56658 whole entry): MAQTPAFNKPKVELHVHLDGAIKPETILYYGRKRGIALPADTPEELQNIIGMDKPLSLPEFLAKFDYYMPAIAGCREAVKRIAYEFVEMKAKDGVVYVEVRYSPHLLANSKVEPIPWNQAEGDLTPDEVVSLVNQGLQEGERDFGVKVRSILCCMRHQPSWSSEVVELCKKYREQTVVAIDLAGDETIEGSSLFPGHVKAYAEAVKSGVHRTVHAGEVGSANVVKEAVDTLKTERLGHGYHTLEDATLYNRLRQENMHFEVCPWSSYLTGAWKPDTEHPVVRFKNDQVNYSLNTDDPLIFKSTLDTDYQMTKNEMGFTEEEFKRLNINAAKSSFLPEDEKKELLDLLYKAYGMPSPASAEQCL
Assay Readout: Ki (nM)

CCCCCC[C@H]([C@@H](O)CF)n1cnc2c(N)nccc21 ... 4.7
CCCCCC[C@H]([C@@H](O)CO)n1cnc2c(N)nccc21 ... 497
